Assay: Pharmacokinetics test, oral capsules, plasma concentration by LC-MS/MS
Assay type: in vivo
Conditions: male Beagle dogs, oral capsule, 5 mg/kg
Could you please mark 1 (yes) for values of Tmax below 1 h and 0 (no) for values at or above it?

{"columns": ["Compound", "Group label"],
 "data": [
  ["NC(=O)[C@@H]1C[C@H](F)CN1Cc1ccc(OCc2cccc(F)c2)cc1 [Compound represented by formula (I)]", "1 (yes)"],
  ["NC(=O)[C@@H]1C[C@H](F)CN1Cc1ccc(OCc2cccc(F)c2)cc1 [Example 9]", "0 (no)"],
  ["NC(=O)[C@@H]1C[C@H](F)CN1Cc1ccc(OCc2cccc(F)c2)cc1 [Example 10]", "0 (no)"],
  ["NC(=O)[C@@H]1C[C@H](F)CN1Cc1ccc(OCc2cccc(F)c2)cc1 [Example 8]", "1 (yes)"]
]}

Value source: patent US12630507B2
